target: full-length ATR (Homo sapiens); construct: Assays were carried out at 25° C. in the presence of 5 nM full-length ATR; assay: ATR Inhibition Assay (radioactive-phosphate incorporation); assay type: biochemical; details: numeric bound printed among class symbols; Ki(app); 5 nM full-length ATR, 10 μM ATP, 25° C.
Sequence (Q13535 whole entry): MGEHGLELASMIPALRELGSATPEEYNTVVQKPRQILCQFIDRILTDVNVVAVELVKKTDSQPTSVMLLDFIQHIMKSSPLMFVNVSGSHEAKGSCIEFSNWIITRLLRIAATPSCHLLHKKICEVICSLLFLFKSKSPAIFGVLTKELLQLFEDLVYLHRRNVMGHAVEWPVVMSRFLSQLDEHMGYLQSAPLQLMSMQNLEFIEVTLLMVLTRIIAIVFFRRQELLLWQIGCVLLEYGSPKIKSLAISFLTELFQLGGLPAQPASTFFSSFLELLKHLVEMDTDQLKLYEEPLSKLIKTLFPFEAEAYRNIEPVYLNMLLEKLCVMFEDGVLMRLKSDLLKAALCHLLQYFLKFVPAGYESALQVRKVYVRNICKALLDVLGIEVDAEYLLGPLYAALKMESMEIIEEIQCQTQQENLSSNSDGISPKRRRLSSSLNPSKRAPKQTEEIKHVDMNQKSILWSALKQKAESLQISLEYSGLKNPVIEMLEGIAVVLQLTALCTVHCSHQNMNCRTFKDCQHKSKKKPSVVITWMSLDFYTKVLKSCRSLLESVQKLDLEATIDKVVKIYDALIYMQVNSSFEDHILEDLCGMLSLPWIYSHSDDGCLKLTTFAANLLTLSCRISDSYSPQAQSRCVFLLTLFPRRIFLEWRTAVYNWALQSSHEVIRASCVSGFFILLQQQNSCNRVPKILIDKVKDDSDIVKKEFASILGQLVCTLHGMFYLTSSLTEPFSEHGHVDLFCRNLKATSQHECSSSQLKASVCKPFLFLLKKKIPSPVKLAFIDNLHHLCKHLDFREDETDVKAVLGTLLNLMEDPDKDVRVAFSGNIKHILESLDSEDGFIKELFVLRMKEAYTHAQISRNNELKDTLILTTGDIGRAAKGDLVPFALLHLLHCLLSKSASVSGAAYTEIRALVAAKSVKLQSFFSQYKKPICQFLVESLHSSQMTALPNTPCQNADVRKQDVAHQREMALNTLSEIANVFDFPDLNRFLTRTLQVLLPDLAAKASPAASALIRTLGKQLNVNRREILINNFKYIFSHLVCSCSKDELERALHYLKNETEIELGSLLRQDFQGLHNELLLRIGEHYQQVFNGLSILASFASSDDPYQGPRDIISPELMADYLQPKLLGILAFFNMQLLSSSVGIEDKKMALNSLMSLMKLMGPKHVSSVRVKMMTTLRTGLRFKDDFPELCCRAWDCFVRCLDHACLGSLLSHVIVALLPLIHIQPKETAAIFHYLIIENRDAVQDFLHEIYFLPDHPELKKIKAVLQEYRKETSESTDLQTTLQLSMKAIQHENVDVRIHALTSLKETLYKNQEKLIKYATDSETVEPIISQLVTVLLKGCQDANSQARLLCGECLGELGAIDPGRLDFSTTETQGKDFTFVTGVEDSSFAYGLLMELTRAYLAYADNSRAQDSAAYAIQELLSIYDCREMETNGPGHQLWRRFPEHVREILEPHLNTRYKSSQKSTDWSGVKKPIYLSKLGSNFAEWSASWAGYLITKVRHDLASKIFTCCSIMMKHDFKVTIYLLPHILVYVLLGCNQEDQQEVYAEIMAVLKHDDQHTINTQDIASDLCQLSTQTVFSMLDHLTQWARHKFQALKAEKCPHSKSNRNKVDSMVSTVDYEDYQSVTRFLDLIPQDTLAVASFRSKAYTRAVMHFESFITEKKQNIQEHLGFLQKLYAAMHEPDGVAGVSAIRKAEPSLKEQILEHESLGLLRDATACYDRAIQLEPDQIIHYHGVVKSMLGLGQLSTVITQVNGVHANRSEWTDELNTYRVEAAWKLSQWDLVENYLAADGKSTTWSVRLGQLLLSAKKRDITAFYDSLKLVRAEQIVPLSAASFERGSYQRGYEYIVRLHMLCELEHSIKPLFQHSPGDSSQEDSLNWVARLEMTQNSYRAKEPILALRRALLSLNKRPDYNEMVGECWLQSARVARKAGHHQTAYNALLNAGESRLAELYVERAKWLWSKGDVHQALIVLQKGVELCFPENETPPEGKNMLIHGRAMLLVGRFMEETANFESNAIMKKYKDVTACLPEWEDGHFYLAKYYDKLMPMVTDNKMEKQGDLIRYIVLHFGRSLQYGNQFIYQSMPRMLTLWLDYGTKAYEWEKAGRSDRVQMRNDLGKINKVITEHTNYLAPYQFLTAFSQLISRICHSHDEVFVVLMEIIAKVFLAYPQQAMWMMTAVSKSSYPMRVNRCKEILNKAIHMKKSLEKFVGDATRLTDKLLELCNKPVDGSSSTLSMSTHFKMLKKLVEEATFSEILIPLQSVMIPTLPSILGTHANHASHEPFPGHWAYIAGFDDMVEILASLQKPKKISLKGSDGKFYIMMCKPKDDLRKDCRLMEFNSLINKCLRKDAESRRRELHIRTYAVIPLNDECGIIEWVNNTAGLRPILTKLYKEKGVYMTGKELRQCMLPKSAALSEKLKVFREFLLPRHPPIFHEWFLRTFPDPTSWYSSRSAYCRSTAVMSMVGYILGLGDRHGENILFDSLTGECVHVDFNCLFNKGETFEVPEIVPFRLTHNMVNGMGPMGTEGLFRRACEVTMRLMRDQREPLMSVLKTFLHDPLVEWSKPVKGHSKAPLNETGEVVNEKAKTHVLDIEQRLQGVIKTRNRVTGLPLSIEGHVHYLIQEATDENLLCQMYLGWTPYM
pKi: −log10 of the molar value.
observable: pKi

Query :: Look at this compound and give its reported pKi. CC(C)S(=O)(=O)c1ccc(-c2cnc3[nH]cc(N4Cc5ccc(C#N)cc5C4=O)c3n2)cc1
Result :: < 5.40
